target: Receptor-interacting serine/threonine-protein kinase 2 (Homo sapiens) (UniProt O43353); settings: at 1 µM
Sequence (O43353 whole entry): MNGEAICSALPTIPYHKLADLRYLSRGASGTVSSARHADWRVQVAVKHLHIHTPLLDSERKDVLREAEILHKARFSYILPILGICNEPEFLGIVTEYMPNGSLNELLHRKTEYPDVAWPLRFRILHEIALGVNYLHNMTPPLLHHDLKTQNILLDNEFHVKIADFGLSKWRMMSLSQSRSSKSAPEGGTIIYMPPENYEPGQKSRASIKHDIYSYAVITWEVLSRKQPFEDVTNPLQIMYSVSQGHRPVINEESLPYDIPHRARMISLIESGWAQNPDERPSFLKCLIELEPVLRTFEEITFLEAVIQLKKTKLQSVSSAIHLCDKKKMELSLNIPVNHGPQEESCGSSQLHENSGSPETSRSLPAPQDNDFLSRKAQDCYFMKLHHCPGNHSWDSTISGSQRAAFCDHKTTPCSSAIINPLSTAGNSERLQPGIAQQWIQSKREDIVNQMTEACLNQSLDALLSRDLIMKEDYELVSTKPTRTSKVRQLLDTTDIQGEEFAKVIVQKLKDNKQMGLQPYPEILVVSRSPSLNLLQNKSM
Description: Millipore: Percentage of residual kinase activity of RIPK2 at 1uM relative to control. Control inhibitor: Phosphoric acid* at 0.3uM. Buffer: 8 mM MOPS pH 7.0, 0.2 mM EDTA
Binary call on residual activity: yes (1) from 30% upward, no (0) beneath that.

[
  {
    "querySmiles": "Nc1nc(Nc2ccc(S(N)(=O)=O)cc2)nn1C(=S)Nc1c(F)cccc1F",
    "discreteLabel": "no (0)"
  },
  {
    "querySmiles": "O=[N+]([O-])c1ccc(-c2nc(-c3ccc(F)cc3)c(-c3ccncc3)[nH]2)cc1",
    "discreteLabel": "no (0)"
  },
  {
    "querySmiles": "CN(C)c1ccc(/C=C2\\C(=O)Nc3ccccc32)cc1",
    "discreteLabel": "yes (1)"
  },
  {
    "querySmiles": "O=c1c2ccccc2[nH]c(=S)n1CCN1CCC(=C(c2ccc(F)cc2)c2ccc(F)cc2)CC1",
    "discreteLabel": "yes (1)"
  },
  {
    "querySmiles": "COc1cc2ncnc(Nc3ccc(O)c(Br)c3)c2cc1OC",
    "discreteLabel": "no (0)"
  },
  {
    "querySmiles": "N#C/C(=C(\\N)Sc1ccc(N)cc1)c1ccccc1C(F)(F)F",
    "discreteLabel": "yes (1)"
  },
  {
    "querySmiles": "CNc1cc2c(Nc3cccc(Br)c3)ncnc2cn1",
    "discreteLabel": "yes (1)"
  },
  {
    "querySmiles": "Cn1cnc2cc3c(Nc4cccc(Br)c4)ncnc3cc21",
    "discreteLabel": "no (0)"
  },
  {
    "querySmiles": "O=C1c2ccccc2-[n+]2ccc3c([nH]c4ccccc43)c21",
    "discreteLabel": "yes (1)"
  },
  {
    "querySmiles": "CC(=O)O/N=C1\\C(=C2\\C(=O)Nc3cc(Br)ccc32)Nc2ccccc21",
    "discreteLabel": "yes (1)"
  }
]

* * *

molecular target: Tyrosine-protein kinase Yes (Homo sapiens); settings: at 10 µM
Each record here notes measured residual activity.

[
  {
    "compound": "N#C/C(=C(\\N)Sc1ccc(N)cc1)c1ccccc1C(F)(F)F",
    "studySystem": "Tyrosine-protein kinase Yes (Homo sapiens)",
    "residual activity": "101%"
  },
  {
    "compound": "Cc1ccc(S(=O)(=O)/C=C/C#N)cc1",
    "studySystem": "Tyrosine-protein kinase Yes (Homo sapiens)",
    "residual activity": "103%"
  },
  {
    "compound": "Cc1ccc(NC2=CC(=O)c3sc(C)nc3C2=O)cc1",
    "studySystem": "Tyrosine-protein kinase Yes (Homo sapiens)",
    "residual activity": "105%"
  },
  {
    "compound": "Cc1nc(-c2ccccc2)c(-c2ccncc2)o1",
    "studySystem": "Tyrosine-protein kinase Yes (Homo sapiens)",
    "residual activity": "99%"
  },
  {
    "compound": "O=c1cc(-c2cccc3c2Sc2ccccc2S3)oc(N2CCOCC2)c1",
    "studySystem": "Tyrosine-protein kinase Yes (Homo sapiens)",
    "residual activity": "91%"
  },
  {
    "compound": "Ic1cccc(CSc2nnc(-c3ccncc3)o2)c1",
    "studySystem": "Tyrosine-protein kinase Yes (Homo sapiens)",
    "residual activity": "84%"
  },
  {
    "compound": "CO[C@@H]1[C@H](N(C)C(=O)c2ccccc2)C[C@H]2O[C@]1(C)n1c3ccccc3c3c4c(c5c6ccccc6n2c5c31)C(=O)NC4",
    "studySystem": "Tyrosine-protein kinase Yes (Homo sapiens)",
    "residual activity": "4%"
  },
  {
    "compound": "O=C1NC(=O)c2cc(Nc3ccc(F)cc3)c(Nc3ccc(F)cc3)cc21",
    "studySystem": "Tyrosine-protein kinase Yes (Homo sapiens)",
    "residual activity": "10%"
  },
  {
    "compound": "CCN(CC)C(=O)c1ccc(Nc2nc(OCC3CCCCC3)c3nc[nH]c3n2)cc1",
    "studySystem": "Tyrosine-protein kinase Yes (Homo sapiens)",
    "residual activity": "1%"
  },
  {
    "compound": "COc1ccc(OC)c2c(=S)c3ccccc3[nH]c12",
    "studySystem": "Tyrosine-protein kinase Yes (Homo sapiens)",
    "residual activity": "100%"
  },
  {
    "compound": "O=C1Nc2ccccc2/C1=C1/Nc2ccccc2/C1=N\\OCCC(O)CO (stereo not drawn)",
    "studySystem": "Tyrosine-protein kinase Yes (Homo sapiens)",
    "residual activity": "2%"
  },
  {
    "compound": "CC#CC(=O)Nc1cc2c(Nc3ccc(F)c(Cl)c3)ncnc2cn1",
    "studySystem": "Tyrosine-protein kinase Yes (Homo sapiens)",
    "residual activity": "90%"
  },
  {
    "compound": "c1ccc2c(-c3ccncc3)c[nH]c2c1",
    "studySystem": "Tyrosine-protein kinase Yes (Homo sapiens)",
    "residual activity": "97%"
  },
  {
    "compound": "c1ccc(-c2n[nH]cc2-c2ccnc3ccccc23)nc1",
    "studySystem": "Tyrosine-protein kinase Yes (Homo sapiens)",
    "residual activity": "53%"
  },
  {
    "compound": "Cc1nc2cc3nc(-c4cccs4)cnc3cc2n1C",
    "studySystem": "Tyrosine-protein kinase Yes (Homo sapiens)",
    "residual activity": "59%"
  },
  {
    "compound": "CNc1cc2c(Nc3cccc(Br)c3)ncnc2cn1",
    "studySystem": "Tyrosine-protein kinase Yes (Homo sapiens)",
    "residual activity": "45%"
  },
  {
    "compound": "COc1ccc(S(=O)(=O)N(CCO)c2ccccc2CN(C)C/C=C/c2ccc(Cl)cc2)cc1",
    "studySystem": "Tyrosine-protein kinase Yes (Homo sapiens)",
    "residual activity": "79%"
  },
  {
    "compound": "COc1cc2ncnc(N3CCN(C(=O)Nc4ccc(Oc5ccccc5)cc4)CC3)c2cc1OC",
    "studySystem": "Tyrosine-protein kinase Yes (Homo sapiens)",
    "residual activity": "105%"
  },
  {
    "compound": "Oc1c2ccccc2c2c3c(cccc13)N=N2",
    "studySystem": "Tyrosine-protein kinase Yes (Homo sapiens)",
    "residual activity": "51%"
  },
  {
    "compound": "CCC(=O)Nc1ccc2ncnc(Nc3cccc(Br)c3)c2c1",
    "studySystem": "Tyrosine-protein kinase Yes (Homo sapiens)",
    "residual activity": "50%"
  },
  {
    "compound": "COc1cc2ncnc(Nc3ccc(O)c(Br)c3)c2cc1OC",
    "studySystem": "Tyrosine-protein kinase Yes (Homo sapiens)",
    "residual activity": "2%"
  },
  {
    "compound": "O=c1c2ccccc2[nH]c(=S)n1CCN1CCC(=C(c2ccc(F)cc2)c2ccc(F)cc2)CC1",
    "studySystem": "Tyrosine-protein kinase Yes (Homo sapiens)",
    "residual activity": "96%"
  },
  {
    "compound": "NC(=O)c1ccc2[nH]c(-c3ccc(Oc4ccc(Cl)cc4)cc3)nc2c1",
    "studySystem": "Tyrosine-protein kinase Yes (Homo sapiens)",
    "residual activity": "105%"
  }
]
